- METHOD_NOTES: Evaluation of conversion rate to active form in buffer solution (Experimental Example 1)
- Format: physicochemical
- SETUP_CONDITIONS: pH6.5, 2 hr
ASSAY_READOUT: Residual rate (%)

Below are worked cases with known answers.
COMPOUND: CC(C)[C@H](N)C(=O)O[C@@H]1CN(C)CC[C@@H]1c1c(O)cc(O)c2c(=O)cc(-c3ccccc3Cl)oc12 [Comparative Example 10, reference compound]
Residual rate, %: 81.1
--
COMPOUND: CN1CC[C@H](c2c(O)cc(O)c3c(=O)cc(-c4ccccc4Cl)oc23)[C@H](OC(=O)[C@@H](N)CO)C1 [Comparative Example 9, reference compound]
Residual rate, %: 49.4

I = CNC(=O)O[C@@H]1CN(C)CC[C@@H]1c1c(O)cc(O)c2c(=O)cc(-c3ccccc3Cl)oc12 [Comparative Example 5, reference compound]
II = CN1CC[C@H](c2c(O)cc(O)c3c(=O)cc(-c4ccccc4Cl)oc23)[C@H](OC(=O)CN)C1 [Comparative Example 8, reference compound]
Field: entry with larger Residual rate (options I / II ). Returns: label corresponding to the selected item.
I
(I: 93.5%, II: 45.2%)

----------
- METHOD_NOTES: Evaluation of conversion rate to active form in buffer solution (Experimental Example 1)
- Assay type: physicochemical
- SETUP_CONDITIONS: pH7.0, 3 hr
ASSAY_READOUT: Production rate of Alvocidib (%)

MOLECULE: CC(C)[C@H](N)C(=O)O[C@@H]1CN(C)CC[C@@H]1c1c(O)cc(O)c2c(=O)cc(-c3ccccc3Cl)oc12 [Comparative Example 10, reference compound]
ASSAY_READOUT: Production rate of Alvocidib
UNITS_LABEL: %
ASSAY_VALUE: 19.5

MOLECULE: CNC(=O)O[C@@H]1CN(C)CC[C@@H]1c1c(O)cc(O)c2c(=O)cc(-c3ccccc3Cl)oc12 [Comparative Example 5, reference compound]
ASSAY_READOUT: Production rate of Alvocidib
UNITS_LABEL: %
ASSAY_VALUE: 0.0

MOLECULE: CCNC(=O)O[C@@H]1CN(C)CC[C@@H]1c1c(O)cc(O)c2c(=O)cc(-c3ccccc3Cl)oc12 [Comparative Example 4, reference compound]
ASSAY_READOUT: Production rate of Alvocidib
UNITS_LABEL: %
ASSAY_VALUE: 1.8

MOLECULE: CN1CC[C@H](c2c(OC(=O)N(C)CCN)cc(O)c3c(=O)cc(-c4ccccc4Cl)oc23)[C@H](O)C1 [Comparative Example 13, reference compound]
ASSAY_READOUT: Production rate of Alvocidib
UNITS_LABEL: %
ASSAY_VALUE: 91.0

MOLECULE: CNCCN(C)C(=O)Oc1cc(O)c2c(=O)cc(-c3ccccc3Cl)oc2c1[C@H]1CCN(C)C[C@H]1O [Comparative Example 14, reference compound]
ASSAY_READOUT: Production rate of Alvocidib
UNITS_LABEL: %
ASSAY_VALUE: 96.7

P = C[C@H](N)C(=O)O[C@@H]1CN(C)CC[C@@H]1c1c(O)cc(O)c2c(=O)cc(-c3ccccc3Cl)oc12 [Comparative Example 7, reference compound]
Q = CN1CC[C@H](c2c(O)cc(O)c3c(=O)cc(-c4ccccc4Cl)oc23)[C@H](OC(=O)[C@@H](N)CO)C1 [Comparative Example 9, reference compound]
# query: argmin of Production rate of Alvocidib over P and Q Give the label under which the chosen entry appears.
Q
